# Tested on: M14 melanoma
# protocol-notes: NCI-60 one-dose screen, 48 h (100 = growth as untreated, 0 = no growth, -100 = all killed)
# condition-info: 10 µM unless noted
# Description: Growth inhibition of the M14 human tumor cell line is measured as a screen for anti-cancer activity. Cells are grown in 96 well plates and exposed to the test compound for 48 hours. Compounds are tested at a single concentration, which is 10^-5 M for most compounds. The reported endpoint is percent growth (GI% or GIPRCNT), where numbers from 0 - 100% represent growth inhibition, and numbers from -100% - 0 represent cell death. For example, a value of 40 represents 60% growth inhibition. […]
This is part of a sample that, as a whole, favours compounds with a hit. Of some 83,000 tested, about 20% had one in any assay.
recorded-endpoint: growth (%)
Give the value, in units of %, as a plain number.

Record excerpt, results attached:
- CC(C)(C)OC(=O)N1CCN(S(=O)(=O)/N=C2\NC(=O)NC2=C(Cl)Cl)CC1: 103
- C#C[C@]1(O)CC[C@H]2[C@@H]3CC=C4c5sc(-c6ccc(OC)cc6)nc5CC[C@]4(C)[C@H]3CC[C@@]21C: 36.4
- COc1ccc(-c2nc3cc(Cl)c(Cl)cc3n2CC(=O)N=Nc2c(O)[nH]c3ccc(Br)cc23)cc1: -48.8
- CCOC(=O)c1c(NCC(=O)Nc2ccc(Br)cc2)sc2c1CCCC2: 46.3
- COc1ccc(NS(=O)(=O)c2ccc(-c3cnc(C4CC4)o3)cc2)cc1Cl: 21.1

Returns the measured growth for the input compound. Input: `O=C1c2c(c3c4cc(O)ccc4oc3c3[nH]c4ccccc4c23)C(=O)N1O`
-4.66

Repeat for the following compound: `CN1CCN(c2ccc(NC(=O)Nc3ccc4c(ccn4-c4cccc(C(N)=O)n4)c3)cc2C(F)(F)F)CC1`
-47

Repeat for the following compound: `Cc1ccc(NC(=O)c2cc(/C=C/C(=O)NO)cc(C(F)(F)F)c2)cc1Nc1nccc(-c2cccnc2)n1`
-20.7

Repeat for the following compound: `O=C(Nc1cc(F)cc2cccnc12)c1cnc(N2CCOCC2)cn1`
70.6

###

# Tested on: OVCAR-8 ovarian
# protocol-notes: NCI-60 one-dose screen, 48 h
# condition-info: 10 µM unless noted
This is part of a sample that, as a whole, favours compounds with a hit. Of some 83,000 tested, about 20% had one in any assay. Activity calls are given as the source filed them. The calls were made as follows: active = growth percent below 10; inactive = the rest.
# valid calls are YES (active), NO (inactive); nothing else

Below, 3 compounds whose answers are already recorded.
* Cc1cccc(NC(c2cc3cccc4ccc5cccc2c5c43)c2nnnn2C(C)(C)C)c1C (stereo not given) | NO
* Nc1nc(N)c2c(n1)NC(c1ccccc1)CC(c1ccc(Nc3nc(NCCO)nc(Nc4ccc(Cl)cc4)n3)cc1)=N2 (stereo not given) | YES
* O=C(/C=C1\C=CN(CCCCCCF)c2ccccc21)n1ccc2ccccc21 | NO

// param item: `Cc1cc(Cl)cc(NS(=O)(=O)c2ccc(-c3cnc(C4CC4)o3)cc2)c1` ; yields the recorded call
NO

###

# Tested on: U251 CNS
# protocol-notes: NCI-60 one-dose screen, 48 h (100 = growth as untreated, 0 = no growth, -100 = all killed)
# condition-info: 10 µM unless noted
This is part of a sample that, as a whole, favours compounds with a hit. Of some 83,000 tested, about 20% had one in any assay.
Respond with T for growth values of 30% and above, F for values below.

- O=C(CCCCCCN1CC(=O)N2[C@@H](c3cccc(Cl)c3)c3[nH]c4ccccc4c3C[C@H]2C1=O)NO: T
- CS(=O)c1nccc(-c2c(-c3ccc(F)c(OCCc4ccccc4)c3)nc3sccn23)n1 (stereo unspecified): T
- Oc1ccccc1-c1nnc(SCc2ccc(O)c3ncccc23)n1-c1ccccc1: F
- C#CCOc1ccc(C(Nc2cc(Cl)ccc2Cl)c2nnnn2C2CCCCC2)cc1 (stereo unspecified): T
- COC[C@@]1(C)CC[C@]2(C)CC[C@]3(C)C(=CC[C@@H]4[C@@]5(C)CCCNC(C)(C)[C@@H]5CC[C@]43C)C2C1 (stereo partly specified): T
- Cc1nn(-c2ccccc2)cc1/C=N/Nc1nc(Nc2ccccc2)nc(Nc2ccc(S(N)(=O)=O)cc2)n1: F
- C#CCOc1ccc(C(Nc2ccc(OC)cc2)c2nnnn2C2CCCCC2)cc1 (stereo unspecified): T
- Oc1ccc(CSc2nnc(-c3ccccc3)o2)c2cccnc12: F
- CCOC(=O)/C=c1\sc2n(c1=O)C1C(NN=2)N(CC)C(=O)N1CC (stereo unspecified): T
- O=C1CC2(CCOCC2)Oc2ncccc21: F

Is reported growth greater than or equal to 30% here: CC1OC(O[C@@H]2C(O)C(CO)OC(O[C@H]3COC(O[C@H]4CC[C@]5(C)[C@H]6CC[C@]78OC[C@@]9(CC[C@](C)(C=O)C[C@H]97)[C@H](O)C[C@@]8(C)[C@]6(C)CC[C@H]5C4(C)C)[C@@H](OC4OC(CO)[C@@H](O)[C@@H](O)[C@@H]4O)[C@@H]3O)[C@H]2OC2OC[C@@H](O)[C@@H](O)[C@@H]2O)[C@@H](O)[C@@H](O)[C@H]1O (stereo partly specified)
F

Cited source for all entries: PubChem BioAssay (NCI)
